Data credit: patent US11999727B2

assayed target: PRMT5 (Homo sapiens, UniProt O14744)
Construct: purchased Viva (custom protein)
Sequence (O14744 whole entry): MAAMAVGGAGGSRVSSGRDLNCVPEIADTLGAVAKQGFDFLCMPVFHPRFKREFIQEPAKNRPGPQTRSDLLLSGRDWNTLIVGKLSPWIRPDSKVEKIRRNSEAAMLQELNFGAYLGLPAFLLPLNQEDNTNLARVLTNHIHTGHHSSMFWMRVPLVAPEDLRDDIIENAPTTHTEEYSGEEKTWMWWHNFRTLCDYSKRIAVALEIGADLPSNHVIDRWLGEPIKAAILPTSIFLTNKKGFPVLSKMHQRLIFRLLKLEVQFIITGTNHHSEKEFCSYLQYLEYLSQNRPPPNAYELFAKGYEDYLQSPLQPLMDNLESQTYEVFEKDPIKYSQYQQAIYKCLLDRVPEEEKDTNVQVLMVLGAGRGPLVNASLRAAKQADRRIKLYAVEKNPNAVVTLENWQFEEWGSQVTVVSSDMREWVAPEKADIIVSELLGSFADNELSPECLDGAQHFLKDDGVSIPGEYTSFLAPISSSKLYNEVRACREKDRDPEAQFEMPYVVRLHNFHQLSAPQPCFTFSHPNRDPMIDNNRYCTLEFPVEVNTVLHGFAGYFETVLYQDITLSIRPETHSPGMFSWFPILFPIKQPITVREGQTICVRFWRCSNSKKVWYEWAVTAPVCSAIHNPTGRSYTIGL
Sequence (Q9BQA1 whole entry partner): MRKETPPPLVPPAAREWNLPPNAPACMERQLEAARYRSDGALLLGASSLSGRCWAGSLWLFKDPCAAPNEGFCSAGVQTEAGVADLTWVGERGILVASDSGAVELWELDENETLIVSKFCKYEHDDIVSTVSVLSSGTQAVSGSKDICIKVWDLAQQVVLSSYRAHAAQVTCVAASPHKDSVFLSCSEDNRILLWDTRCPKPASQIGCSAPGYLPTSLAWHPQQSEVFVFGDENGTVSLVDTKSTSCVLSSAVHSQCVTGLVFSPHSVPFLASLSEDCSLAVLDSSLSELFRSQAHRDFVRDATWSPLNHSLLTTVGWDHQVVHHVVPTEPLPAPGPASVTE
measurement notes: PRMT5 biochemical IC50 assay with SAM as cofactor
setup conditions: PRMT5, SAM as cofactor; read-out: SAM IC50
pIC50: −log10 of the molar value.
Please go through the items and note down their pIC50.

1. C[C@H]1CC[C@H](c2ccc(NCC(=O)N(C)C)cc2)N(C(=O)C(=O)Nc2cncc(C(N)=O)c2)C1 (single isomer, unassigned) [Compound 1082]    < 6.30
2. C[C@@H]1CC[C@@H](C2CCC(F)(F)CC2)N(C(=O)C(=O)Nc2cncc(C(N)=O)c2)C1 (single isomer, unassigned) [Compound 486]    < 6.30
3. Cc1cc(NC(=O)C(=O)N2C[C@@H](C)CC[C@@H]2c2ccc(S(C)(=O)=O)cc2)cnc1N (single isomer, unassigned) [Compound 976]    6.30 to 7.30
4. CCc1cc(NC(=O)C(=O)N2C[C@@H](C)CC[C@@H]2c2ccc(N3CCOC4(CN(C)C4)C3)cc2)cnc1N (single isomer, unassigned) [Compound 1339]    6.30 to 7.30

For each entry beneath this line, provide reported pIC50.
1. Cc1ncc(NC(=O)C(=O)N2C[C@@H](C)CC[C@@H]2c2ccc3c(c2)CCC(=O)N3)cc1C(F)F (single isomer, unassigned) [Compound 903]
2. C[C@@H]1CN(C(=O)C(=O)Nc2cncc(C(N)=O)c2)[C@@H](c2ccccc2)C[C@H]1O (racemic) [Compound 459]

Found:
1. < 6.30
2. 6.30 to 7.30

====

assayed target: PRMT5 (Homo sapiens)
Construct: purchased Viva (custom protein)
measurement notes: PRMT5 biochemical IC50 assay with SAM as cofactor
setup conditions: PRMT5, SAM as cofactor; read-out: SAM IC50
Please go through the items and note down their IC50.

Recorded results for 2 molecules are shown here.
1) COc1ncc(NC(=O)C(=O)N2C[C@@H](C)C(F)(F)C[C@@H]2c2ccc(F)cc2)cc1C(N)=O (single isomer, unassigned)    > 0.5 µM
2) C[C@@H]1CC[C@@H](c2ccc(NCC(=O)N(C)C)cc2)N(C(=O)C(=O)Nc2cncc(C(N)=O)c2)C1 (single isomer, unassigned)    0.05 to 0.5 µM

Provide reported IC50 for each item, in the same order as listed.
1. CCc1cc(NC(=O)C(=O)N2C[C@H](C)C(F)(F)C[C@H]2c2ccc(F)c(F)c2)cnc1N (single isomer, unassigned)
2. CCc1cc(NC(=O)C(=O)N2C[C@@H](C)CC[C@@H]2c2ccc3sc(C4CCN(C5CC5)CC4)nc3c2)cnc1N
3. Cc1cc(NC(=O)C(=O)N2C[C@H](C)CC[C@@H]2C2CCCCC2)cnc1N (racemic)
4. Cc1cc(NC(=O)C(=O)N2C[C@H](C)CC[C@H]2c2cccc(S(C)(=O)=O)c2)cnc1N (single isomer, unassigned) [Compound 895]

Found:
> 0.5 µM
< 0.05 µM
> 0.5 µM
0.05 to 0.5 µM

====

Give measured IC50 for each item. Keep answers brief.
Tested on: HAP1 MTAP-deleted cell line
measurement notes: SDMA in-cell western assay, HAP1 MTAP-deleted
Format: cell-based
setup conditions: Homo sapiens, HAP1, SDMA in-cell western, HAP1 MTAP-deleted; read-out: HAP1 MTAP deleted IC50

1. Cc1cc(NC(=O)C(=O)N2C[C@H](C)CC[C@H]2c2ccn(-c3cc[nH]n3)n2)cnc1N (single isomer, unassigned)    < 0.1 µM
2. Cc1cc(NC(=O)C(=O)N2C[C@@H](C)CC[C@@H]2c2ccc3sc(-c4cnn(C)c4)nc3c2)cnc1N (racemic)    < 0.1 µM
3. C[C@@H]1CC[C@@H](c2cccc(N(C)C)c2)N(C(=O)C(=O)Nc2cncc(C(N)=O)c2)C1 (single isomer, unassigned)    < 0.1 µM

Provide each entry's IC50 from the list below.
1. CCc1cc(NC(=O)C(=O)N2C[C@H](C)CC[C@H]2c2ccc(N)nc2)cnc1N (single isomer, unassigned)
2. CNc1cccc([C@@H]2CCCCN2C(=O)C(=O)Nc2cncc(C(N)=O)c2)c1 (single isomer, unassigned)
3. Cc1cccc([C@H]2CC[C@H](C)CN2C(=O)C(=O)Nc2cncc(C(N)=O)c2)c1 (single isomer, unassigned)
4. CCc1cc(NC(=O)C(=O)N2C[C@@H](C)[C@@H](OC)C[C@@H]2c2cccc(OCCN(C)C)c2)cnc1N (racemic)
5. Cc1cc(NC(=O)C(=O)N2C[C@@H](C)CC[C@@H]2c2ccc(N)nc2)cnc1N (single isomer, unassigned)
6. C[C@@H]1CC[C@@H](c2ccc3c(c2)CCCN3)N(C(=O)C(=O)Nc2cncc(C(N)=O)c2)C1 (single isomer, unassigned)
7. Cc1cc(NC(=O)C(=O)N2C[C@H](C)CC[C@H]2c2cccc(Cl)c2)cnc1N (single isomer, unassigned)
8. CCc1cc(NC(=O)C(=O)N2C[C@H](C)CC[C@H]2c2ccc(N3CCN(C)CC3)cc2)cnc1N (single isomer, unassigned)

Found:
["> 1 µM", "< 0.1 µM", "< 0.1 µM", "< 0.1 µM", "> 1 µM", "< 0.1 µM", "> 1 µM", "> 1 µM"]

// IC50 (HAP1 MTAP-deleted cell line) for Cc1cc([C@H]2CC[C@H](C)CN2C(=O)C(=O)Nc2cncc(C(N)=O)c2)ccc1F (single isomer, unassigned) = < 0.1 µM
